Below, each entry is listed with its recorded koff.
target: T1, recombinant human PD-1-his (Sino biological, #10377-H08H) (human, UniProt Q15116 25-167); test: SPR (Biacore T200), antibody captured, antigen flowed
T1 construct: Bought protein; also called Human PD-1-his protein; not shown: his tag
T1 sequence (Q15116 25-167 limits assumed): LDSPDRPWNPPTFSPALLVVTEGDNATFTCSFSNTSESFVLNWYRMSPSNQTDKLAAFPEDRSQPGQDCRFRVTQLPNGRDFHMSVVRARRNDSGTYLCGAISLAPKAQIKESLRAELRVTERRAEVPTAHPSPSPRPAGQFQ
Give the quantity in s⁻¹, number only.

| Binder | Endpoint unit | koff |
| --- | --- | --- |
| mouse anti-PD-1 monoclonal antibody C1A1 (antibody, mouse IgG1, kappa, V domains shown, Purified from hybridoma; Constant regions tied only generically to 'mouse antibodies') VH: QVTLKESGPGILKPSQTLSLTCSFSGFSLSTSGMGVGWIRQPSGKGLEWLAHIWWDDDKFYNPSLKSQLTISKDTSRNQVFLKITSVDTADTATYYCARTGGFITTGYWYFDVWGAGTTVTVSS VL: DIQMTQTTSSLSASLGDRVTISCRASQDISNYLIWYQQKTDGTLKLLIYYTSRLHSGVPSRFSGSGSGTDYSLTISNLEQEDIATYFCQQHKTLPWTFGGGTKLEIKR | s⁻¹ | 0.000189 |
| mouse anti-PD-1 monoclonal antibody D1A1 (antibody, mouse IgG1, kappa, V domains shown, Purified from hybridoma; Constant regions tied only generically to 'mouse antibodies') VH: EVMLVESGGGLVKPGGSLKLSCAASGFTFSNYAMSWVRQTPEKRLEWVATISGGGGNIYYPDSVKGRFTISRDNARNTLYLQMSSLRSEDTALYYCASPYANYVWYLDVWGAGTTVTVSS VL: DIQMTQTTSSLSASLGDRVTISCRASQDISNYLNWYQQKPDGTVKLLIYYTSRLHSGVPSRFSGSGSGTDFSLTISNLEEEDIATYFCQQSNALPWTFGGGTKLEIKR | s⁻¹ | 0.000386 |
| mouse anti-PD-1 monoclonal antibody C1E2 (antibody, mouse IgG1, kappa, V domains shown, Purified from hybridoma; Constant regions tied only generically to 'mouse antibodies') VH: QVQLQQSGAELVRPGTSVKISCKASGYTFTNYWLGWVKQRPGHGLEWIGDIYPGGGYTNYNENFKGKATLTADTSSSTAYMQLSSLTSEDSAVFFCARGYGTNYWYFDVWGAGTTVTVSS VL: SIVMTQTPKFLLVSAGDRVTITCKASQSVSNDVAWYQQKPGQSPKLLIYYAFHRYTGVPDRFTGSGYGTDFTFTISTVQAEDLAVYFCQQDYSSPYTFGGGTKLEIKR | s⁻¹ | 0.000442 |

# evaluate next
Qu. Could you share which koff value was measured for mouse anti-PD-1 monoclonal antibody C1F5 (antibody, mouse IgG1, kappa, V domains shown, Purified from hybridoma; Constant regions tied only generically to 'mouse antibodies') VH: EVQLVESGGGLVKPGGSLKLSCAASGFAFSSYDMSWVRQTPEKRLEWVAYITGGGSSSFYPDTVKGRFTISRDNSKNTLYLQMTSLRSEDTAMYYCASPYLSYFDYWGQGTTLTVSS VL: DIVLTQSPATLSVTPGDSVSLSCRASQSISNNLHWYQQKSHESPRLLIKYGSQSMSGIPSRFSGSGSGTDFTLVINSVETEDFGMYFCQQSNSWPLTFGAGTKLELKR ?
Ans. 0.000131

The values you see were collected from patent US12037395.
